Reported growth is given for each of the following compounds.
# Test system: E. coli TESEC Mtb Asd
# measurement_protocol: growth (OD600 after 10 h); higher = more growth (less inhibition)
# condition_notes: arabinose induction (level): Low; compound 0.1 mM; raw OD600 reference: median of DMSO wells 0.417, cell-free background 0.041
Structures can show the parent of a compound that is named as a salt.
# print the numeric value only

Prompt: Return growth for the following compound: CC(=O)OCC(=O)[C@@]1(O)CC[C@H]2[C@@H]3CCC4=CC(=O)C=C[C@]4(C)[C@@]3(F)[C@@H](O)C[C@@]21C [Isoflupredone acetate]
Completion: 0.413

Prompt: Return growth for the following compound: CCCN[C@H]1CCc2nc(N)sc2C1 [Pramipexole dihydrochloride]
Completion: 0.334

Prompt: Return growth for the following compound: CN(C)CCCN1c2ccccc2Sc2ccc(C(F)(F)F)cc21 [Triflupromazine hydrochloride]
Completion: 0.0491

Prompt: Return growth for the following compound: CN1CCCC(n2nc(Cc3ccc(Cl)cc3)c3ccccc3c2=O)CC1 (centres undefined) [Azelastine HCl]
Completion: 0.241

Next:
Prompt: Return growth for the following compound: CCCCc1nc(Cl)c(CO)n1Cc1ccc(-c2ccccc2-c2nnn[nH]2)cc1
Completion: 0.409

Prompt: Return growth for the following compound: O=C1OC(CN2CCOCC2)CN1/N=C/c1ccc([N+](=O)[O-])o1 (centres undefined) [Furaltadone hydrochloride]
Completion: 0.0559

Prompt: Return growth for the following compound: COc1ccc(CC(C)NCC(O)c2ccc(O)c(NC=O)c2)cc1 (centres undefined) [Formoterol fumarate]
Completion: 0.395

Prompt: Return growth for the following compound: CCC(NC(C)C)C(O)c1ccc(O)c(O)c1 (centres undefined) [Isoetharine mesylate salt]
Completion: 0.37

Prompt: Return growth for the following compound: CN(C)CCN(Cc1cccs1)c1ccccn1 [Methapyrilene hydrochloride]
Completion: 0.41

Prompt: Return growth for the following compound: CC1CCc2c(N3CCC(O)CC3)c(F)cc3c(=O)c(C(=O)O)cn1c23 (centres undefined)
Completion: 0.0485

Prompt: Return growth for the following compound: NC(=O)OCC(O)COc1ccc(Cl)cc1 (centres undefined) [Chlorphensin carbamate]
Completion: 0.379
